Biological target: SRSF protein kinase 3 (Homo sapiens);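 also: values are mean inhibition of MSSK1 (alias of SRPK3)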
Details: at 1 µM
Recorded Metric: inhibition (%)
Record the value in %, omitting the unit from your answer.

>  <Compound>
CS(=O)(=O)Nc1ccc(-c2ccc3c(NC(=O)C4CC4)n[nH]c3c2)cc1

>  <Recorded Metric>
inhibition

>  <Uom>
%

>  <Result Number>
-1.76

$$$$
>  <Compound>
CS(=O)(=O)Nc1ccc(-c2cc(-c3ccccc3)cc(C(N)=O)c2N)cc1

>  <Recorded Metric>
inhibition

>  <Uom>
%

>  <Result Number>
-0.01

$$$$
>  <Compound>
CCS(=O)(=O)c1ccc(OC)c(Nc2ncc(-c3cccc(C(C)=O)c3)o2)c1

>  <Recorded Metric>
inhibition

>  <Uom>
%

>  <Result Number>
0.97

$$$$
>  <Compound>
COc1cc(N2CCN(C(C)C)CC2)ccc1Nc1nc(Nc2cccc(F)c2C(=O)O)c2cc[nH]c2n1

>  <Recorded Metric>
inhibition

>  <Uom>
%

>  <Result Number>
3.96

$$$$
>  <Compound>
COc1ccc(-c2nn3ncccc3c2-c2ccnc(Nc3ccc(F)c(F)c3)n2)cc1

>  <Recorded Metric>
inhibition

>  <Uom>
%

>  <Result Number>
3.15

$$$$
>  <Compound>
O=C(O[C@H]1CN[C@H](C#Cc2cc3ncnc(Nc4ccc5c(cnn5Cc5ccccc5)c4)c3s2)C1)N1CCOCC1

>  <Recorded Metric>
inhibition

>  <Uom>
%

>  <Result Number>
-0.82

$$$$

Per the records, this compound ( CC1=C(C(=O)Nc2ccc3[nH]ncc3c2)C(c2ccc(F)cc2)N=C(c2ccc(C(F)(F)F)nc2)N1 (centres undefined) ) has inhibition equal to 0.93

Per the records, this compound ( NS(=O)(=O)c1ccc(N/N=C2\C(=O)Nc3ccc(C(=O)NCc4ccncc4)cc32)cc1 ) has inhibition equal to 2.17

Per the records, this compound ( COc1ccc2ncn(-c3cc(O[C@H](C)c4ccccc4C(F)(F)F)c(C(N)=O)s3)c2c1 ) has inhibition equal to -0.79

* * *

Biological target: Dual specificity tyrosine-phosphorylation-regulated kinase 1B (Homo sapiens) (UniProt Q9Y463);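 also: values are mean percent inhibition of DYRK1B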
Sequence (Q9Y463 whole entry, looked up): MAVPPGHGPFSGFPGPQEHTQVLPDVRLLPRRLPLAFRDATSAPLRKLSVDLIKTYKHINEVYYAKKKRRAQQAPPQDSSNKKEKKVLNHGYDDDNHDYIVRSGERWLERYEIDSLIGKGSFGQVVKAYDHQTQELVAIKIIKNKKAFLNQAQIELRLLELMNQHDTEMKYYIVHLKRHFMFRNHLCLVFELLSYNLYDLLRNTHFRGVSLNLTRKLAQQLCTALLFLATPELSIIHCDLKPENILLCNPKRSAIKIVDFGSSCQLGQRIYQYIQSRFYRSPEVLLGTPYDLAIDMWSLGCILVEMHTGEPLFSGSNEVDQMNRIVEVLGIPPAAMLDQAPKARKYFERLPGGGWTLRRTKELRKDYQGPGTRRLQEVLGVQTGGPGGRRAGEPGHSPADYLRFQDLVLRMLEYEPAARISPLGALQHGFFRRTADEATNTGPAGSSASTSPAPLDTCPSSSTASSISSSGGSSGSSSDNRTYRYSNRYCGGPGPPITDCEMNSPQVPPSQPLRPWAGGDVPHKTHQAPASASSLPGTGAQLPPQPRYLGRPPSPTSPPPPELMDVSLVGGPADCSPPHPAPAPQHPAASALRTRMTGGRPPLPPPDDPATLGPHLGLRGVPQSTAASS
Conditions: at 0.1 µM
Listed here are molecules together with their documented inhibition.
Record the value in %, omitting the unit from your answer.

Field: example entries. Status: answers known.
>  <Molecule>
CS(=O)(=O)CCNCc1ccoc1-c1ccc2ncnc(Nc3ccc(OCc4ccccc4)cc3)c2c1

>  <Recorded Metric>
inhibition

>  <Uom>
%

>  <Result Number>
-1.48

$$$$
>  <Molecule>
CCn1c(-c2nonc2N)nc2cncc(C(=O)NCCNC)c21

>  <Recorded Metric>
inhibition

>  <Uom>
%

>  <Result Number>
9.71

$$$$

Per the records, this molecule ( COc1ccc(Nc2ncc(-c3ccccc3)o2)cc1OC ) has inhibition equal to 9

Per the records, this molecule ( Cc1nnc(-c2cccc(-c3ccc(C(=O)NCC4CC4)cc3)c2)o1 ) has inhibition equal to 0.21

Per the records, this molecule ( CS(=O)(=O)CCNCc1ccc(-c2ccc3ncnc(Nc4ccc(OCc5cccc(C(F)(F)F)c5)cc4)c3c2)o1 ) has inhibition equal to -0.58

Per the records, this molecule ( CNC(=O)c1cncc(/C=C/c2ccccc2C)c1 ) has inhibition equal to 0.2

Per the records, this molecule ( CN(c1ccc(NC(=O)NCCN2CCOCC2)cc1)c1ccnc(Nc2ccc(CS(C)(=O)=O)cc2)n1 ) has inhibition equal to -0.71

Per the records, this molecule ( N#Cc1cccc(Nc2ncc(-c3ccccc3)o2)c1 ) has inhibition equal to -0.09

Per the records, this molecule ( CCS(=O)(=O)c1ccc(OC)c(Nc2ncc(-c3cccc(C(C)=O)c3)o2)c1 ) has inhibition equal to 4.09

Per the records, this molecule ( NS(=O)(=O)c1cccc(N/C=C2\C(=O)Nc3ccccc32)c1 ) has inhibition equal to 1.69

Per the records, this molecule ( CC1(C)CC(n2cnc(-c3ccc(F)cc3)c2-c2ccnc(N)n2)CC(C)(C)N1 ) has inhibition equal to 0.78

Per the records, this molecule ( COc1cc(Nc2ncc(-c3ccccc3)o2)cc(OC)c1 ) has inhibition equal to -8.51

Per the records, this molecule ( FC(F)(F)CNc1nccc(-c2cnn3ncccc23)n1 ) has inhibition equal to 16.1

Per the records, this molecule ( O=C(Nc1n[nH]c2nnc(-c3cccnc3)cc12)C1CC1 ) has inhibition equal to 69.1

Per the records, this molecule ( CC1=C(C(=O)Nc2ccc3[nH]ncc3c2)C(c2ccc(F)cc2)N=C(c2ccc(C(F)(F)F)nc2)N1 (stereo unspecified) ) has inhibition equal to 1.23
